System: HS 578T breast
Assay: NCI tumour cell line growth inhibition, 48 h; in the data active = GI50 below about 0.43 µM; inactive = the rest
Outcome codes: t = active, f = inactive

>>> class_assignment("O=C1c2cc(F)ccc2-c2c1c1ccc([N+](=O)[O-])cc1c(=O)n2CCCBr")
"f"
>>> class_assignment("C=CC(=O)N1CC[C@H](n2nc(C#Cc3cc(OC)cc(OC)c3)c3c(N)ncnc32)C1")
"f"
>>> class_assignment("O=C1c2c(Cl)c(Cl)c(Cl)c(Cl)c2C(=O)C2(Cl)CC=CCC12Cl (stereo unspecified)")
"f"
>>> class_assignment("COc1cc2nc3cc([N+](=O)[O-])ccc3c(NCCNCC(C)O)c2cc1OC (stereo unspecified)")
"f"
>>> class_assignment("NC(N)=N/N=C/c1c(-c2cccnc2)nc2sc(Cl)cn12")
"f"
>>> class_assignment("COc1ccc(Cn2cc3c(c2-c2cc(OC)c(OC)c(OC)c2)CCc2c(CO)noc2-3)cc1")
"t"

----------
Tested on: OVCAR-3 ovarian
Test: NCI tumour cell line growth inhibition, 48 h
Would you mind labelling by TGI? At or over 40 µM is Met, under is Not met.

>>> class_assignment("CN(C)c1ccc(/C=C(\\NC(=O)c2ccccc2)C(=O)Nc2cccc(C(=O)NCCCO)c2)cc1")
"Met"
>>> class_assignment("O=[N+]([O-])/C(Cl)=C/C(=C1/Nc2ccccc2O1)[N+](=O)[O-]")
"Met"
>>> class_assignment("O=c1[nH]c(=O)n(CCOc2ccc(Cl)cc2)cc1Nc1ccccc1")
"Met"
>>> class_assignment("O=[N+]([O-])C(/C=C(\\Cl)[N+](=O)[O-])=C(N1CCCCC1)N1CCCCC1")
"Met"
>>> class_assignment("COc1cc(C2c3cc4c(cc3OC(NCCO)C2C)OCO4)cc(OC)c1O (stereo not given)")
"Met"
>>> class_assignment("COc1cc(O)c2c(c1)C(=O)C1=C(C2=O)C(O)C[C@@](C)(O)C1 (stereo not given in full)")
"Not met"
>>> class_assignment("CCOC(=O)C12CC(C)=C(C)CC1CCCc1ccccc12 (stereo not given)")
"Met"
>>> class_assignment("NC(N)=N/N=C/c1c(-c2cccnc2)nc2sc(Cl)cn12")
"Not met"
>>> class_assignment("CC1Cc2ccccc2N1C(=O)Cc1nc(N2CCOCC2)cc(=O)[nH]1 (stereo not given)")
"Met"
>>> class_assignment("CN1C(=O)C2(c3ccccc31)C1CC3C(CO1)C1C2C3(CO)CN1C#N (stereo not given)")
"Met"

----------
Test system: KM12 colon
Experiment: NCI tumour cell line growth inhibition, 48 h
Residues, ends and D or L forms follow the SMILES beside them. *: point of attachment. Cbz = O=C(OCc1ccccc1)*
ENDPOINT: GI50

>>> result("Oc1ccccc1/C=N\\NC(=S)N/N=C/c1ccccc1O")
"3.11 µM"
>>> result("C[C@H]1CCC/C=C/[C@@H]2C[C@H](O)C[C@H]2[C@H](O)/C=C/C(=O)O1")
"0.0197 µM"
>>> result("COc1ccc(NC(=O)c2ccc(NC3=C(Cl)C(=O)N(Cc4ccccc4)C3=O)cc2)c(OC)c1")
"27.7 µM"
>>> result("CCNCCNc1cc(-c2ccc(C(F)(F)F)cc2)c(C#N)c2nc3cc(Cl)c(Cl)cc3n12")
"1.69 µM"
>>> result("O=C1c2c(Cl)c(Cl)c(Cl)c(Cl)c2C(=O)C2(Cl)CC=CCC12Cl (configuration not stated)")
"1.84 µM"
>>> result("NC(N)=Nc1ccc(/C=C2\\C=Cc3ccccc32)cc1")
"1.85 µM"
>>> result("CN(C)CCNC(=O)c1ccc2oc3cc4ccccc4c(=O)n3c2c1")
"10.5 µM"
>>> result("CC(C)C[C@@H](C=O)NC(=O)[C@H](CC(C)C)NC(=O)[C@H](CC(C)C)NC(=O)OCc1ccccc1 (Cbz-Leu-Leu-Leu-aldehyde)")
"0.281 µM"
>>> result("CCCN(CCC)c1ccc(C=O)c(C)c1")
"44.7 µM"
>>> result("COc1cc(C2CC(=O)Nc3c2c(C)nn3-c2nc3ccccc3[nH]2)cc(OC)c1O (configuration not stated)")
"3.26 µM"
>>> result("O=C1CC(N2C(=O)/C(=C/C(Cl)=C\\c3ccc([N+](=O)[O-])cc3)SC2=S)C(=O)N1c1ccc(O)cc1 (configuration not stated)")
"1.83 µM"
>>> result("O=C1c2cc(F)ccc2-c2c1c1ccc([N+](=O)[O-])cc1c(=O)n2CCCBr")
"20.9 µM"
>>> result("COc1ccc(-c2cn(-c3cc(OC)c(OC)c(OC)c3)c(=O)[nH]2)cc1OC")
"> 100 µM"
>>> result("COC(=O)c1oc2c(C(=O)/C=C/c3ccc(OC)cc3)c(OCCN3CCOCC3)ccc2c1C")
"1.77 µM"
>>> result("COC(=O)CNc1nc(N(C)O)nc(N(C)O)n1")
"5.65 µM"
>>> result("Cc1ccccc1C(C(=O)NC1CCCCC1)N(C(=O)CNc1ncccc1F)c1cccc(F)c1 (configuration not stated)")
"> 100 µM"
>>> result("COc1cc2c(c(OC)c1OC)-c1c(c3ccc([N+](=O)[O-])cc3c(=O)n1CCCN)C2=O")
"6.64 µM"
